Tested on: SK-MEL-28 melanoma
experimental.details: NCI-60 one-dose screen, 48 h (100 = growth as untreated, 0 = no growth, -100 = all killed)
cond: 10 µM unless noted
The panel holds about 83,000 compounds, 20% with a hit somewhere; the sample as a whole holds those more often.
I'd appreciate it if you marked entries 1 when growth is lower than 70% and 0 when it is not.

Given the entry "CC1CCN(CCCCCOc2ccc3oc4ccccc4c(=O)c3c2)CC1" , would its reported growth be below 70%?
0

Another molecule to check: "CNCc1cccc2c1OCCOCCOCCN(CCN1CCOCC1)S(=O)(=O)c1ccc(cc1)-c1cnc(N)c(n1)C(=O)N2"
0

Another molecule to check: COc1cc(C2CC(c3ccc(Nc4nc(NCCO)nc(NCCO)n4)cc3)=NN2c2cc(Cl)cc(Cl)c2)cc(OC)c1OC (stereo unspecified)
1

Another molecule to check: "COc1ccccc1Nc1nnc(-c2ccc(Cl)cc2)o1"
1

Another molecule to check: "C=C1C(=O)O[C@H]2[C@H]1CC/C(COC(=O)Nc1nc3ccccc3[nH]1)=C\CC[C@@]1(C)O[C@@H]21"
1

Another molecule to check: "O=C1Nc2ccc(Cl)cc2/C1=N/c1nc(-c2ccc(F)cc2)cs1"
1

Another molecule to check: "Cc1cccc(C)c1NCc1nnc(-c2ccco2)o1"
0

Another molecule to check: "O=C(Nc1cc(Nc2ncccc2-c2ncnc3nc[nH]c23)ccc1F)c1cc(C(F)(F)F)cc(C(F)(F)F)c1"
1

Another molecule to check: "O=C(Nc1ccc2ncnc(Nc3cccc(C(F)(F)F)c3)c2c1)c1cccs1"
0

Another molecule to check: "O=c1c2ccccc2oc2ccc(OCCCCCCN3CCCCCC3)cc12"
1

Another molecule to check: Cc1cccc(C)c1NC(=O)CN(CC(C)C)CC(O)COc1ccccc1 (stereo unspecified)
0

Another molecule to check: "Nc1c(C(=O)Nc2ccccn2)sc2nc3c(cc12)CCCCC3"
0

Another molecule to check: "C=C1C(=O)O[C@H]2[C@H]1CC/C(COC(=O)c1cccnc1)=C\CC[C@@]1(C)O[C@@H]21"
0

Another molecule to check: CCCS(=O)(=O)Nc1ccc(F)c(C(=O)c2c[nH]c3ncc(-c4ccc(OCCCC5CCCCN5)nc4)cc23)c1F (stereo unspecified)
1

Another molecule to check: "c1ccc(Sc2ncccn2)nc1"
0

Another molecule to check: "Cn1cc(-c2ccc3c(c2)ncn3-c2ccc(CC(=O)Nc3cc(C(C)(C)C)on3)cc2)cn1"
1

Another molecule to check: COc1ccc(-c2nc(C#N)c(NCC(c3ccco3)N3CCCC3)o2)cc1 (stereo unspecified)
1

Another molecule to check: "C=C1C(=O)O[C@H]2[C@H]1CC/C(COC(=O)CCCCC(=O)OC/C1=C/CC[C@@]3(C)O[C@H]3[C@H]3OC(=O)C(=C)[C@@H]3CC1)=C\CC[C@@]1(C)O[C@@H]21"
0

Another molecule to check: "CCOC(=O)c1c(C)nc2c(c1N)/C(=C/c1ccccn1)C(=O)N2Cc1ccccc1"
1

Another molecule to check: "O=C(O)c1cn(C2CC2)c2cc(N3CCN(Cc4nnc(Nc5ccccc5)o4)CC3)c(F)cc2c1=O"
0

Another molecule to check: NS(=O)(=O)c1ccc(C2C3=C(CCCC3=O)OC3=C2C(=O)c2ccccc2C3=O)cc1 (stereo unspecified)
1

Another molecule to check: "O=C(O)c1cn(C2CC2)c2cc(N3CCN(C(=O)CSc4nnc(-c5ccc(Cl)cc5)n4-c4ccccc4)CC3)c(F)cc2c1=O"
0

Another molecule to check: "O=[N+]([O-])c1cccc(CN(Cc2cccc([N+](=O)[O-])c2O)c2ccccc2)c1O"
0

Another molecule to check: "COC(=O)c1oc2c(C(=O)/C=C/c3ccc(OC)cc3)c(OCCCN3CCCCC3)ccc2c1C"
1

Another molecule to check: CC1CCCN(CCCCCOc2ccc3oc4ccccc4c(=O)c3c2)C1 (stereo unspecified)
1

Another molecule to check: "Nc1cc(N)c(S(=O)(=O)O)cc1N=Nc1cc([N+](=O)[O-])ccc1O"
0

Another molecule to check: "COC(=O)c1nc(-c2ccccc2)oc1S(=O)(=O)n1nc(C)cc1N"
0

Another molecule to check: "Oc1ccccc1-c1nc2c3ccccc3c3ccccc3c2o1"
0

Another molecule to check: "CSc1nc(-c2ccc(F)cc2)c(C#N)c(N2CCOCC2)n1"
0

Another molecule to check: "C=CCn1c(SCC(=O)Nc2ccc(C(=O)/C=C/c3ccc(Cl)cc3)cc2)nnc1-c1cc(OC)c(OC)c(OC)c1"
0
